Target: Alpha-bungarotoxin (Bungarus multicinctus) (UniProt P60615)
Sequence (P60615 whole entry, looked up): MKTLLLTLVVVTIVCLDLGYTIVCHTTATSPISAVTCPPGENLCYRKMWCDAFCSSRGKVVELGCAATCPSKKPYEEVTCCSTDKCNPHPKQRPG
Experiment: alpha-bungarotoxin binders on microarray, profiling panel, artefact control for SMM control protein annotation, biochemical, small-molecule microarray, Alexa647 label, 635/667 nm fluorescence (AID 1117)
Conditions: alpha-BTX-A647 binding fluorescence, higher = more signal
Documented composite z-score across a set of molecules
Number only, no unit.

IN: Kindly indicate its recorded composite z-score. Item: NC(=O)N1C(=O)C2C(C1=O)C1C=C(c3ccc(CO)cc3)C2C(C2CC2)N1Cc1sc2ccccc2c1Cl (stereo not drawn)
OUT: 2.12

***
IN: Kindly indicate its recorded composite z-score. Item: "Cc1ccc(S[C@]2(C(=O)NC3CC3)CC(=O)N(Cc3ccccc3Cl)[C@@H]2c2ccc(CO)cc2I)cc1"
OUT: 0.939

IN: Kindly indicate its recorded composite z-score. Item: CC1CC/C=C\[C@H]2OC34C=CCN(C(C)C)C(=O)[C@H]3N(CCCCCO)C(=O)[C@@H]4C2C(=O)O1 (stereo partly drawn)
OUT: -1.36

All figures here come from PubChem BioAssay.
